Origin of values: the supplement of paper PMC11780869

- System: Bacillus subtilis
- measurement notes: cleaved RNA product abundance (RNA/gDNA barcode ratio) relative to median wild-type variant (ratio to wild type); higher = more accumulation of the downstream cleavage product
- condition details: experiment (reporter, strain, medium): exp 2b: truncated aprE reporter, strain BJT200; cleavage site: cggR-gapA (positions -7 to +36 mutated)
readout label: cleaved RNA product abundance
Answers are plain numbers.

I would be grateful if you could provide cleaved RNA product abundance for each of the following entries.
1. ACAGACGAAGGAGCCGCAAAGAAGTTGTTAAGGGATGAATAATCCCTAAATATAAATATCTCTCACTTATTTAAA
2. ACAGACGAAGGAGCCGCAAAGAAGTTATTAAGGGTTGAATAATACCTCAATATAAATATCTCTCACTTATTTAAA
3. ACAGACGAAGGAGCCGCAAAGAAGTTATTAACGGATGAATAATCTCTCAATATAAATATCTCTCACTTATTTAAA
4. ACAGACGAAGGAGCCGCAAAGAAGTTATAAAGGTATGAATAATCCCTCAATATAAATATCTCTCACTTATTTAAA

0.274
0.146
0.0813
0.0925

I need cleaved RNA product abundance for every entry listed below, if you could help.
1. ACAGACGAAGGAGCCGCAAAGAAGTAATTAAGGGCTGAATAATCCCTCAATATAAATATCTCTCACTTATTTAAA
2. ACAGACGAAGGAGCCGCAAAGAAGATATTAAGGGATGAATAATCACTCAATATAAATATCTCTCACTTATTTAAA

0.161
0.145

For every record below, what is its cleaved RNA product abundance?
1. ACAGACGAAGGAGCCGCAAAGAAGTTATTAAGGGATCAATAATCCCTCAATTTAAATATCTCTCACTTATTTAAA
2. ACAGACGAAGGAGCCGCAAAAAAGTTATTAAGGGATGAATAATCACTCAATATAAATATCTCTCACTTATTTAAA
3. ACAGACGAAGGAGCCGCAAAGAAGTTATTAAGGGATGAAGAATCCCTCAATATAAATATCTCTCACTTATTTAAA
4. ACAGACGAAGGAGCCGCAAAGACGTTATTAAGGTATGAATAATCCCTCAATATAAATATCTCTCACTTATTTAAA
5. ACAGACGAAGGAGCCGCAAAGAAGTTATTAAGGGATGAATAATTCCTCAATATAATTATCTCTCACTTATTTAAA
6. ACAGACGAAGGAGCCGCAAAGAAGTTACTAAGGGACGAATAATCCCTCAATATAAATATCTCTCACTTATTTAAA
7. ACAGACGAAGGAGCCGCAAAGAAGTTATTAAGGGATAAATAATACCTCAATATAAATATCTCTCACTTATTTAAA
8. ACAGACGAAGGAGCCGCAAACAAGTTATTAAGGGATGAATAAACCCTCAATATAAATATCTCTCACTTATTTAAA

1: 0.197; 2: 0.108; 3: 0.653; 4: 0.0832; 5: 0.298; 6: 0.131; 7: 0.117; 8: 0.29

----------
- Test system: Bacillus subtilis
- measurement notes: cleaved RNA product abundance (RNA/gDNA barcode ratio) relative to median wild-type variant (ratio to wild type); higher = more accumulation of the downstream cleavage product
- condition details: experiment (reporter, strain, medium): exp 4a: truncated aprE reporter, strain BJT201 with 2% xylose (RNase J1 expressed); cleavage site: cggR-gapA (positions -7 to +36 mutated)
Assign TRUE to entries whose cleaved RNA product abundance meets or exceeds 0.2; assign FALSE to the rest.

Example results:
sequence string	cat
ACAGACGAAGGAGCCGCAAACAAGTTATTAAGGGATGAATAATGCCTCAATATAAATATCTCTCACTTATTTAAA	FALSE
ACAGACGAAGGAGCCGCAAAGAACCTATTAAGGGATGAATAATCCCTCAATATAAATATCTCTCACTTATTTAAA	TRUE

Textbook exercise: given the entry "ACAGACGAAGGAGCCGCAAAGAAGTTATTAAGGGCTGAATAATCCCTAAATATAAATATCTCTCACTTATTTAAA" , state whether its cleaved RNA product abundance is greater than or equal to 0.2. TRUE

Assess whether reported cleaved RNA product abundance for "ACAGACGAAGGAGCCGCAAAGAAGTAATTAAGGGATGAATAATCCCTCAATATAAATAGCTCTCACTTATTTAAA" sits at 0.2 or higher. FALSE

Test whether the sequence "ACAGACGAAGGAGCCGCAAAGAAGTTATTAAGGCATTAATAATCCCTCAATATAAATATCTCTCACTTATTTAAA" records cleaved RNA product abundance of 0.2 or higher. FALSE

Check this sequence for cleaved RNA product abundance at or above 0.2: "ACAGACGAAGGAGCCGCAAAGAAGTTAGTAAGGGATTAATAATCCCTCAATATAAATATCTCTCACTTATTTAAA" TRUE

Quick check, cleaved RNA product abundance >= 0.2? "ACAGACGAAGGAGCCGCAAAGAAGTGATTAAGGGATGAATAATCCCTCAATATAAAAATCTCTCACTTATTTAAA" TRUE

Does "ACAGACGAAGGAGCCGCAAAGAAGTTGTTAAGGGATAAATAATCCCTCAATATAAATATCTCTCACTTATTTAAA" have a reported cleaved RNA product abundance of at least 0.2? TRUE

# check: cleaved RNA product abundance of "ACAGACGAAGGAGCCGCAAATAAGTTATTAAGGGATGATTAATCCCTCAATATAAATATCTCTCACTTATTTAAA" is greater than or equal to 0.2 TRUE

Is the recorded value of cleaved RNA product abundance equal to or greater than 0.2 for this sequence? "ACAGACGAAGGAGCCGCAAAGAAGTTATTACGGGATGAATGATCCCTCAATATAAATATCTCTCACTTATTTAAA" TRUE

Check this sequence for cleaved RNA product abundance at or above 0.2: "ACAGACGAAGGAGCCGCAAATAAGTTATTAAGGGATGAATAATCCCTCAATATAATTATCTCTCACTTATTTAAA" TRUE

Could you tell me if the measured cleaved RNA product abundance of "ACAGACGAAGGAGCCGCAAAGAAGTTGTTAAGGGATGAATAATCCCTCAATATAAATACCTCTCACTTATTTAAA" reaches 0.2 or more? FALSE

Hello, I need to know if "ACAGACGAAGGAGCCGCAAAGAACTTATTAAGGGATGAATAATCCCTTAATATAAATATCTCTCACTTATTTAAA" has measured cleaved RNA product abundance not below 0.2. Thanks! TRUE

Hi team, for "ACAGACGAAGGAGCCGCAAAGAAGTTATTAAGGTATGAATAATCCCTCAAAATAAATATCTCTCACTTATTTAAA" , is the recorded cleaved RNA product abundance at or above 0.2? FALSE

Does the sequence "ACAGACGAAGGAGCCGCAAAGAAGTTATTAAGGGATGAATAATACCTCAATATAAATACCTCTCACTTATTTAAA" have recorded cleaved RNA product abundance that is 0.2 or more? FALSE

----------
- Tested on: Bacillus subtilis
- measurement notes: cleaved RNA product abundance (RNA/gDNA barcode ratio) relative to median wild-type variant (ratio to wild type); higher = more accumulation of the downstream cleavage product
- condition details: experiment (reporter, strain, medium): exp 4a: truncated aprE reporter, strain BJT201 with 2% xylose (RNase J1 expressed); cleavage site: cggR-gapA (positions -7 to +36 mutated)
readout label: cleaved RNA product abundance
One number for each entry.

sequence string	target system	quantitative result
ACAGACGAAGGAGCCGCAAAGAAGTTATTAAGGGATGAATAATCCCTCATAATAAATATCTCTCACTTATTTAAA	Bacillus subtilis	0.554
ACAGACGAAGGAGCCGCAAAGAAGTGATTAAGGGATGAATAATCCCTCACTATAAATATCTCTCACTTATTTAAA	Bacillus subtilis	0.0759
ACAGACGAAGGAGCCGCAACGAAGTTATTAAGGGATGAATAATCCCTCAATATAAATATCTCTCACTTATTTAAA	Bacillus subtilis	0.915

Would you be so kind as to report cleaved RNA product abundance for each listed record?
1. ACAGACGAAGGAGCCGCAAAGAAGTTATTCAGGGATGAATAATCCCTCAATATAAATATCTCTCACTTATTTAAA
2. ACAGACGAAGGAGCCGCAAAGAAGTTATTAAGGGATGTATAATCCCTCAATATAAATCTCTCTCACTTATTTAAA
3. ACAGACGAAGGAGCCGCAAAGAAGTTGTTAAGCGATGAATAATCCCTCAATATAAATATCTCTCACTTATTTAAA
4. ACAGACGAAGGAGCCGCAAAGAAGTTTTTAAGGGATGAGTAATCCCTCAATATAAATATCTCTCACTTATTTAAA

[0.882, 0.82, 0.0544, 0.235]

Hi, could you look up cleaved RNA product abundance for each item in my list?
1. ACAGACGAAGGAGCCGCATAGAAGTAATTAAGGGATGAATAATCCCTCAATATAAATATCTCTCACTTATTTAAA
2. ACAGACGAAGGAGCCGCAAACAAGTTATTAAGGGATGAATAATCCCTCAATATACATATCTCTCACTTATTTAAA

1. 0.356
2. 0.536

Provide each entry's cleaved RNA product abundance from the list below.
1. ACAGACGAAGGAGCCGCAAAGAATTTAGTAAGGGATGAATAATCCCTCAATATAAATATCTCTCACTTATTTAAA
2. ACAGACGAAGGAGCCGCAAACAAGTTATTAAGGGATTAATAATCCCTCAATATAAATATCTCTCACTTATTTAAA
3. ACAGACGAAGGAGCCGCAAATAAGTTATCAAGGGATGAATAATCCCTCAATATAAATATCTCTCACTTATTTAAA
4. ACAGACGAAGGAGCCGCAAAGAAGTTATAAAGGGATGAATAATCCCTCAATATAATTATCTCTCACTTATTTAAA
5. ACAGACGAAGGAGCCGCAAAAAAGTTATTAAGGGATGAATAATCCCTCCATATAAATATCTCTCACTTATTTAAA

[0.337, 0.656, 0.278, 0.171, 0.348]
